assayOverview: Binding affinity to Mn2+ using MnCl2 at 20 uM after 5 mins by spectrophotometry
Activity calls are given as the source filed them. The calls are words filed in the database; no cut-off is given here.
Your reply should match one of these outcome classes. yes (1) for active, no (0) for inactive

Recorded results for 5 compounds are shown here.
Oc1ccc(CNc2ccccc2O)cc1O	no (0)
Oc1c(I)cc(Cl)c2cccnc12	yes (1)
Oc1cccc(CNc2ccccc2O)c1	no (0)
Oc1ccc(CNc2ccccc2O)cc1	no (0)
Oc1ccc(/C=C/c2cc(O)cc(O)c2)cc1	no (0)

IN: What classification did Oc1ccccc1/N=C/c1c(O)ccc2ccccc12 end up with in this test?
OUT: no (0)

IN: What classification did Oc1ccc(/N=C/c2c(O)ccc3ccccc23)c(O)c1 end up with in this test?
OUT: no (0)
